molecular target: Replicase polyprotein 1a (Severe acute respiratory syndrome-related coronavirus, UniProt P0C6U8)
Hi there, I'd appreciate the recorded pIC50 for every entry that follows.
Units for pIC50: none; it is -log10 of a concentration expressed in mol/L.

Exercise: What value of measured pIC50 is listed for CC[C@H](C)[C@H]1C(=O)N2CCC[C@H]2C(=O)O[C@H](C(C)(C)C)C[C@@H](C)C[C@H](O)[C@H](C)C2=N[C@@H](CCC(=O)N[C@@H](Cc3ccc(OC)cc3)C(=O)N(C)[C@@H](C)C(=O)N1C)CS2 [APRATOXIN S4] ?
Solution: 6.77

Exercise: What value of measured pIC50 is listed for "O=C[C@H](C[C@@H]1CCNC1=O)NC(=O)[C@H](Cc1cccc(F)c1)NC(=O)c1cc2ccccc2[nH]1" ?
Solution: 7.40

Exercise: What value of measured pIC50 is listed for "O=C[C@H](C[C@@H]1CCNC1=O)NC(=O)[C@H](CC1CCCCC1)NC(=O)c1cc2ccccc2[nH]1" ?
Solution: 7.28
